Origin of measurements: patent US8318938B2

observable: melting point

// below: answered compounds
compound: Cl.c1ccc2c(c1)CN[C@H]1COc3cc4c(cc3[C@H]21)OCO4
melting point: 163 °C

compound: Cl.c1ccc2c(c1)CN[C@@H]1COc3cc4c(cc3[C@@H]21)OCO4
melting point: 163 °C

compound: C1=NC2COc3cc4c(cc3C2c2ccccc21)OCO4 (stereo not shown) [Example 5]
melting point: 191 °C

compound: Br.Cc1ccc2c(c1)C1c3cc(O)c(O)cc3OCC1NC2 (stereo not shown)
melting point: 195 to 200 °C (dec.)

compound: Cc1ccc2c(c1)C1c3cc4c(cc3OCC1NC2=O)OCO4 (stereo not shown) [Example 16]
melting point: > 250 °C

compound: O=C1N[C@@H]2COc3cc4c(cc3[C@H]2c2ccsc21)OCO4 (racemic) [Example 23]
melting point: > 250 °C

Now examine the next entry.
Lab note: c1ccc2c(c1)CNC1COc3cc4c(cc3C21)OCO4 (stereo not shown) [Example 6] gave melting point of 188 °C
